Measured Kv3.1 Activity at 10 μM Potentiation (%) of individual entries
- SYSTEM_NAME: hKv3.1 (Homo sapiens)
- Construct: expressed in transfected cells
- Sequence (P48547 whole entry): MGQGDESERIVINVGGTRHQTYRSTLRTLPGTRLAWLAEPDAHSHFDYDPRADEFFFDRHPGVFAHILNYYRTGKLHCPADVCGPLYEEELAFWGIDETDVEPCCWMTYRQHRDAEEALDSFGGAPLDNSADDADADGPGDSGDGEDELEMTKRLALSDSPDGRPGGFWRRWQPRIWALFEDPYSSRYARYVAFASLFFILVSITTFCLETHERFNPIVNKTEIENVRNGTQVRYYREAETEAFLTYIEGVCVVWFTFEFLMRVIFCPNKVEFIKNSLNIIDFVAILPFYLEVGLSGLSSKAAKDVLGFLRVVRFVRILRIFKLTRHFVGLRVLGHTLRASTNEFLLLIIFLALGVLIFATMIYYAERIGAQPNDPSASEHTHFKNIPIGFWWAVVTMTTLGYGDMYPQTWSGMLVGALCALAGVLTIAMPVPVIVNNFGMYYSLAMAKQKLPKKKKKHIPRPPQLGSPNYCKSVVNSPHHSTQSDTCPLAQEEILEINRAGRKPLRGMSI
- TEST_SUMMARY: Automated patch clamp (Patchliner) whole-cell electrophysiology, Kv3.1
- Type: cell-based
- CONDITIONS_USED: 10 μM compound; % potentiation of peak current at −10 mV voltage step vs vehicle; CHO-K1 cells stably expressing hKv3.1
The reply should contain only the number, in %.

Example entries begin here.
COc1cc(Oc2nccc(N3C(=O)NC4(CCCC4)C3=O)c2F)ccc1C 217
CC[C@@]1(C)NC(=O)N(c2cccc(Oc3cccc4c3CCC4)n2)C1=O 73
COc1cc(Oc2ccnc(N3C(=O)NC(C)(C)C3=O)c2)ccc1C 45
CC[C@H]1NC(=O)N(c2cccc(Oc3cccc(OC)c3)n2)C1=O 11
COc1cc(Oc2cc(N3C(=O)NC4(CCCC4)C3=O)ccn2)ccc1C 64

Would you kindly look at the next entry?
stdin: Recorded Kv3.1 Activity at 10 μM Potentiation (%) for O=C1NC2(CCCC2)C(=O)N1c1ccnc(Oc2ccc3c(c2)OC(F)(F)O3)c1 with hKv3.1 (Homo sapiens), please?
stdout: 85

###

- SYSTEM_NAME: hKv3.1 (Homo sapiens)
- Construct: expressed in transfected cells
- TEST_SUMMARY: Automated patch clamp (Patchliner) whole-cell electrophysiology, Kv3.1
- Assay type: cell-based
- CONDITIONS_USED: 10 μM compound; voltage shift of the IV curve at V1/2; CHO-K1 cells stably expressing hKv3.1
Note to self: class labels come from recorded Kv3.1 Activity at 10 μM Voltage Shift (mV), ranges listed here: range 1 (below -5 mV), range 2 (-5 mV to below -3 mV), range 3 (-3 mV or more)

The examples below pair each entry with its known result.
COMPOUND	SYSTEM_NAME	CLASS
CC(C)c1cc(Oc2ccnc(N3C(=O)NC(C)(C)C3=O)c2)ccc1C#N [Example 47]	hKv3.1 (Homo sapiens)	range 3
CC[C@@]1(C)NC(=O)N(c2ccnc(Oc3ccc4c(c3)CCC4)c2)C1=O [Example 13]	hKv3.1 (Homo sapiens)	range 2
CC[C@H]1NC(=O)N(c2cc(Oc3ccc(C)c(OC)c3)ccn2)C1=O [Example 41]	hKv3.1 (Homo sapiens)	range 2
CC1(C)NC(=O)N(c2ccnc(Oc3ccc4c(c3)OC(F)(F)O4)c2)C1=O [Example 9]	hKv3.1 (Homo sapiens)	range 1
COc1cc(Oc2nccc(N3C(=O)NC4(CCCC4)C3=O)c2F)ccc1C [Example 90]	hKv3.1 (Homo sapiens)	range 1
CC[C@@]1(C)NC(=O)N(c2cncc(Oc3ccc(C)c(OC)c3)c2)C1=O [Example 40]	hKv3.1 (Homo sapiens)	range 2
COc1cc(Oc2cc(N3C(=O)NC(C)(C)C3=O)ccn2)ccc1C [Example 1]	hKv3.1 (Homo sapiens)	range 3
COc1cc(Oc2nccc(N3C(=O)NC4(CCCCC4)C3=O)c2F)ccc1C [Example 91]	hKv3.1 (Homo sapiens)	range 1

stdin: Looking at O=C1NC2(CCC2)C(=O)N1c1ccnc(Oc2ccc3c(c2)OC(F)(F)O3)c1 [Example 37] , which class would you pick?
stdout: range 1

stdin: Which category fits this record: CC[C@@]1(C)NC(=O)N(c2cccc(Oc3ccc(F)c(OC)c3)n2)C1=O [Example 59]
stdout: range 3

stdin: Field: class (Kv3.1 Activity at 10 μM Voltage Shift (mV)) — entry: O=C1NC2(CCCCC2)C(=O)N1c1ccnc(Oc2ccc3c(c2)OC(F)(F)O3)c1F [Example 93]
stdout: range 1

stdin: Using the reported Kv3.1 Activity at 10 μM Voltage Shift (mV), which band applies to COc1cc(Oc2cc(N3C(=O)NC4(CCN(C)CC4)C3=O)ccn2)ccc1C [Example 30] ?
stdout: range 3

stdin: Band for CC[C@@]1(C)NC(=O)N(c2ccnc(Oc3ccc(C)c(OC)c3)c2)C1=O [Example 10] ?
stdout: range 1

stdin: Which class is correct for the following compound? CC[C@@]1(C)NC(=O)N(c2cccc(Oc3ccc4c(c3)CCC4)n2)C1=O [Example 61]
stdout: range 2

stdin: Exam item: assign COc1cc(Oc2cc(N3C(=O)NC(C)(C)C3=O)ccn2)ccc1Cl [Example 8] to the correct category.
stdout: range 2

stdin: Dear colleague, I would appreciate it if you could identify the bin for CC[C@H]1NC(=O)N(c2cccc(Oc3ccc(C#N)cc3C(C)(C)C)n2)C1=O [Example 57] and reply at your convenience.
stdout: range 3

stdin: In plain terms, what class is COc1cc(Oc2cc(N3C(=O)NC4(CCCC4)C3=O)ccn2)ccc1C [Example 33] ?
stdout: range 1
